target or test system: T1, recombinant human CD63 second extracellular domain (Ala 103-Val 203) fused with a polyhistidine tag at the … (human, UniProt P08962 103-203)
T1 construct: range 103-203; Bought from Creative BioMart; also called human His-tagged CD63; soluble CD63
T1 sequence (looked up): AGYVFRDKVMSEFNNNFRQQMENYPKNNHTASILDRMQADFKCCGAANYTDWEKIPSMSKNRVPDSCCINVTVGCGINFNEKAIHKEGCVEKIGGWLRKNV
measurement notes: BLI (Octet HTX), IgG on anti-human Fc sensors, His-tagged CD63 as analyte, 30 C
Here the recorded koff is given for each entry.
measured endpoint: koff (s⁻¹)

{"binder": "IgG1-CD63 affinity variant P72H (antibody, V domains shown) VH: EVQLQQSGPELVKPGASVKMSCKASGYTFTSYVMHWVRQTPGQGLEWIGYITHYNDGTKYNEKFKGKATLTSDKSSSTAYMELSSLTSEDSAVYYCVGGDNYYYAMDYWGQGTSVTVSA VL: NIMVTQSPSSLAVSAGEKVTMSCKSSQSVLYSSNQKNYLAWYQQKPGQSPKLLIYWASTRVSGVPDRFTGSGSGTDFTLTISRVQAEDLAVYYCHQYFSSFTFGSGTKLEIKR", "unit symbol": "s⁻¹", "recorded result": 0.00057}
{"binder": "wild type IgG1-CD63 (antibody, V domains shown, Mouse 2192 variable domains on human IgG1 constant domains (heavy chain with K409R or F405L) and a human light chain constant domain; also called wt IgG1-CD63; WT) VH: EVQLQQSGPELVKPGASVKMSCKASGYTFTSYVMHWVRQTPGQGLEWIGYITPYNDGTKYNEKFKGKATLTSDKSSSTAYMELSSLTSEDSAVYYCVGGDNYYYAMDYWGQGTSVTVSA VL: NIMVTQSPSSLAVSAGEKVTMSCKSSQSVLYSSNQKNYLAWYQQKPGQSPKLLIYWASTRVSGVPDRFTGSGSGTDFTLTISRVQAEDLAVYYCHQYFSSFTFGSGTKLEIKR", "unit symbol": "s⁻¹", "recorded result": 0.00011}
{"binder": "IgG1-CD63 affinity variant Y127 (antibody, V domains shown, As m1 with one histidine substitution) VH: EVQLQQSGPELVKPGASVKMSCKASGYTFTSYVMHWVRQTPGQGLEWIGYITPYNDGTKYNEKFKGKATLTSDKSSSTAYMELSSLTSEDSAVYYCVGGDNYYYAMDHWGQGTSVTVSA VL: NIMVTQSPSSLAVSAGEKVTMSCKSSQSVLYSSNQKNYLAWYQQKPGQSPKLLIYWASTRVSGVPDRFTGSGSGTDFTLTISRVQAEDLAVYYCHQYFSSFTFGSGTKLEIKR", "unit symbol": "s⁻¹", "recorded result": 0.00011}
{"binder": "IgG1-CD63 affinity variant Y46 (antibody, V domains shown, As m1 with one histidine substitution) VH: EVQLQQSGPELVKPGASVKMSCKASGHTFTSYVMHWVRQTPGQGLEWIGYITPYNDGTKYNEKFKGKATLTSDKSSSTAYMELSSLTSEDSAVYYCVGGDNYYYAMDYWGQGTSVTVSA VL: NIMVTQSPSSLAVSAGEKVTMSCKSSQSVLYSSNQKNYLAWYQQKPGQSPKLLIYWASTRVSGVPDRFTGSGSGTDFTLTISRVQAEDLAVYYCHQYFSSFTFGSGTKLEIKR", "unit symbol": "s⁻¹", "recorded result": 0.00016}
{"binder": "IgG1-CD63 affinity variant LY51H (antibody, V domains shown, As m1 with one histidine substitution in the light chain) VH: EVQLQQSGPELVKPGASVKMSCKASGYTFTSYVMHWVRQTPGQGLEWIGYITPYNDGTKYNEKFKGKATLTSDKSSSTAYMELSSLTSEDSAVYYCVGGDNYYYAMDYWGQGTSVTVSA VL: NIMVTQSPSSLAVSAGEKVTMSCKSSQSVLHSSNQKNYLAWYQQKPGQSPKLLIYWASTRVSGVPDRFTGSGSGTDFTLTISRVQAEDLAVYYCHQYFSSFTFGSGTKLEIKR", "unit symbol": "s⁻¹", "recorded result": 0.0019}
